Test system: Actinobacillus succinogenes NJ113 (CGMCC 1716)
Assay: Fermentation in defined medium with one growth factor missing (serum bottle, 30 h)
Assay type: cell-based
Settings: medium lacking the named growth factor; 30 h, 37° C., 200 rpm
So I've got a bunch of molecules here, and I need their Succinic acid values.
Report the value in g/L with no unit label.

Give Succinic acid for CSCC[C@H](N)C(=O)O
1.3

Give Succinic acid for O=C(O)CCCC[C@@H]1SC[C@@H]2NC(=O)N[C@@H]21
0.7

Give Succinic acid for N[C@@H](CCC(=O)O)C(=O)O
0.5

Give Succinic acid for O=C(O)c1cccnc1
0.1

###

So I've got a bunch of compounds here, and I need their OD660 values.
Test system: Actinobacillus succinogenes NJ113 (CGMCC 1716)
Assay: Fermentation in defined medium with one growth factor missing (serum bottle, 30 h)
Type: cell-based
Conditions: medium lacking the named growth factor; 30 h, 37° C., 200 rpm
API note: the answer field is a bare number with no unit suffix.

Give OD660 for O=C(O)c1cccnc1 [Niacin]
0.2

Give OD660 for N[C@@H](CCC(=O)O)C(=O)O [Glutamic acid]
0.4

Give OD660 for O=C(O)CCCC[C@@H]1SC[C@@H]2NC(=O)N[C@@H]21 [Biotin, biotin]
0.3

Give OD660 for CSCC[C@H](N)C(=O)O [Methionine]
0.6
